Listed next: entries and their corresponding Percent Effect.
System: Wolbachia pipientis
Experiment: Anti-Wolbachia Cell-Based Screen
Format: functional
Design: scale not given: in the data most compounds retested in dose-response had high values
Conditions: 5 µM
About 13,000 (27%) of roughly 48,000 compounds showed an effect of 50% or more. The list shows a part of the results.
The reply should contain only the number, in %.

As a guide, the following entries are already answered.
{"compound": "Cc1cc(N2CCC(NC(=O)CCC3CCCO3)CC2)nc(C)n1 (stereo not given)", "measurement-type": "Percent Effect", "uom": "%", "numeric-value": 7.946}
{"compound": "Cn1cc(C2CC(=O)NC23CCN(Cc2ccncc2)CC3)cn1.O=C(O)C(F)(F)F.O=C(O)C(F)(F)F (stereo not given)", "measurement-type": "Percent Effect", "uom": "%", "numeric-value": 100.3}
{"compound": "Cn1cc(C2CC(=O)NC23CCN(CC2CC2)CC3)cn1.O=C(O)C(F)(F)F (stereo not given)", "measurement-type": "Percent Effect", "uom": "%", "numeric-value": -10.6}
{"compound": "O=C(C1CCC1)N1CCC2(CCN(Cc3cccc(F)c3)CC2)CC1.O=C(O)C(F)(F)F", "measurement-type": "Percent Effect", "uom": "%", "numeric-value": 18.44}

Value of measured Percent Effect for the entry Cc1ncsc1CN1Cc2cn(C)nc2C(COCC2CC2)C1.O=C(O)C(F)(F)F.O=C(O)C(F)(F)F (stereo not given) : 13.37

These data points were gathered from ChEMBL document CHEMBL3988442.
